// IC50 lookup, one value per entry
target: E. coli topoisomerase IV (Escherichia coli, UniProt P0AFI2+P20083); construct: purchased Inspiralis (Norwich, UK); assay: Topoisomerase IV relaxation (inhibition) assay; assay type: biochemical; conditions: averages of three independent experiments; read-out: IC50 in the E. coli Topoisomerase IV inhibition assay
Sequence (P20083 whole entry): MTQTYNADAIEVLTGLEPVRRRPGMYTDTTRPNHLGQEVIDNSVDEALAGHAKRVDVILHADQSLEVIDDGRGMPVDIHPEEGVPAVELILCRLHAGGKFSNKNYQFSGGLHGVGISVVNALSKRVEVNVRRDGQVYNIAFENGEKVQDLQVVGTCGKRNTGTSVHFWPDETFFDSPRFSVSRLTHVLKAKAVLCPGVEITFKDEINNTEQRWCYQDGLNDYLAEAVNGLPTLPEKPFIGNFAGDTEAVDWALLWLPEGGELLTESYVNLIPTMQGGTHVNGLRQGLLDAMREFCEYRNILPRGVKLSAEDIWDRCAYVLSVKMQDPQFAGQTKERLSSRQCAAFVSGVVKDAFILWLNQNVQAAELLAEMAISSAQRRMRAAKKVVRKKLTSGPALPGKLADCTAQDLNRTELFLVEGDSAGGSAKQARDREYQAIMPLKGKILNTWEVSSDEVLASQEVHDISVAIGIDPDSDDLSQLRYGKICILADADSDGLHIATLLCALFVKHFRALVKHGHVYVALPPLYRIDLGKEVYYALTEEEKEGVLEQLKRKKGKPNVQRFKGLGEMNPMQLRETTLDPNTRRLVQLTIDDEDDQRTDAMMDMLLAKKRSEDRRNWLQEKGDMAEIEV
Sequence (P0AFI2 whole entry): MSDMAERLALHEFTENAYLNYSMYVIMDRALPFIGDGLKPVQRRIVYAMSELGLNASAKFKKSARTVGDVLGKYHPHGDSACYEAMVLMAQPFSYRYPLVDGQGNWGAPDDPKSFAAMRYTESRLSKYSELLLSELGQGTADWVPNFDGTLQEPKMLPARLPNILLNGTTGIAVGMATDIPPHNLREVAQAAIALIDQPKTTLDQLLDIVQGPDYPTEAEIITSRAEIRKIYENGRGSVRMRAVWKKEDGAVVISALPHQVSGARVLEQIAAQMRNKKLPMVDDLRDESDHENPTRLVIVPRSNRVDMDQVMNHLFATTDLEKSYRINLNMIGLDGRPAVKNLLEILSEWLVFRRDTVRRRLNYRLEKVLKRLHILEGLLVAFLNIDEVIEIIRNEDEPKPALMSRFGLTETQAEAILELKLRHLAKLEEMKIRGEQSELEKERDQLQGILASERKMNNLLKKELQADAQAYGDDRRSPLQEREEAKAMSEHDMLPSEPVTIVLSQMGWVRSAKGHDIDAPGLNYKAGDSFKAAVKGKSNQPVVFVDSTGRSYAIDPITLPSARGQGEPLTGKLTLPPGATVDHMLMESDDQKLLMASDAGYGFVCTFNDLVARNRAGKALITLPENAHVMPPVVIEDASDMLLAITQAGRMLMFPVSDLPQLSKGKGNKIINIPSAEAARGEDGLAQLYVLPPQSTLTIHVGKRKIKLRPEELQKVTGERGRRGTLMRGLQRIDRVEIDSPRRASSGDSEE

COMPOUND	RELATION	IC50, µM
CC(C)Oc1cc(C(=O)O)ccc1NC(=O)c1ccc(NC(=O)c2ccc(N)cc2)c(OC(C)C)c1O [cystobactamide C, Cystobactamide C]	>	60
COc1cc(C(=O)O)ccc1NC(=O)c1ccc(NC(=O)c2ccc(NC(=O)C(NC(=O)c3ccc(NC(=O)c4ccc([N+](=O)[O-])cc4)cc3)C(OC)C(N)=O)cc2)c(OC)c1O (centres unmarked) [cystobactamide D]	=	10

###

molecular target: E. coli topoisomerase IV (Escherichia coli, UniProt P0AFI2+P20083); construct: purchased Inspiralis (Norwich, UK); assay: Topoisomerase IV relaxation (inhibition) assay; assay type: biochemical; conditions: E. coli topoisomerase IV; read-out: IC50 Topo IV
pIC50: −log10 of the molar value.

MOLECULE	SYSTEM TESTED	pIC50
COc1cc(C(=O)O)ccc1NC(=O)c1ccc(NC(=O)c2ccc(NC(=O)C(NC(=O)c3ccc(NC(=O)c4ccc([N+](=O)[O-])cc4)cc3)C(OC)C(N)=O)cc2)c(OC)c1O (centres unmarked) [cystobactamide D]	E. coli topoisomerase IV (Escherichia coli, UniProt P0AFI2+P20083)	5.00

###

molecular target: H. sapiens topoisomerase II (Homo sapiens); construct: purchased Inspiralis (Norwich, UK); assay: Topoisomerase II relaxation (inhibition) assay; format: biochemical; conditions: read-out: IC50, human topo II
Sequence (P11388 whole entry): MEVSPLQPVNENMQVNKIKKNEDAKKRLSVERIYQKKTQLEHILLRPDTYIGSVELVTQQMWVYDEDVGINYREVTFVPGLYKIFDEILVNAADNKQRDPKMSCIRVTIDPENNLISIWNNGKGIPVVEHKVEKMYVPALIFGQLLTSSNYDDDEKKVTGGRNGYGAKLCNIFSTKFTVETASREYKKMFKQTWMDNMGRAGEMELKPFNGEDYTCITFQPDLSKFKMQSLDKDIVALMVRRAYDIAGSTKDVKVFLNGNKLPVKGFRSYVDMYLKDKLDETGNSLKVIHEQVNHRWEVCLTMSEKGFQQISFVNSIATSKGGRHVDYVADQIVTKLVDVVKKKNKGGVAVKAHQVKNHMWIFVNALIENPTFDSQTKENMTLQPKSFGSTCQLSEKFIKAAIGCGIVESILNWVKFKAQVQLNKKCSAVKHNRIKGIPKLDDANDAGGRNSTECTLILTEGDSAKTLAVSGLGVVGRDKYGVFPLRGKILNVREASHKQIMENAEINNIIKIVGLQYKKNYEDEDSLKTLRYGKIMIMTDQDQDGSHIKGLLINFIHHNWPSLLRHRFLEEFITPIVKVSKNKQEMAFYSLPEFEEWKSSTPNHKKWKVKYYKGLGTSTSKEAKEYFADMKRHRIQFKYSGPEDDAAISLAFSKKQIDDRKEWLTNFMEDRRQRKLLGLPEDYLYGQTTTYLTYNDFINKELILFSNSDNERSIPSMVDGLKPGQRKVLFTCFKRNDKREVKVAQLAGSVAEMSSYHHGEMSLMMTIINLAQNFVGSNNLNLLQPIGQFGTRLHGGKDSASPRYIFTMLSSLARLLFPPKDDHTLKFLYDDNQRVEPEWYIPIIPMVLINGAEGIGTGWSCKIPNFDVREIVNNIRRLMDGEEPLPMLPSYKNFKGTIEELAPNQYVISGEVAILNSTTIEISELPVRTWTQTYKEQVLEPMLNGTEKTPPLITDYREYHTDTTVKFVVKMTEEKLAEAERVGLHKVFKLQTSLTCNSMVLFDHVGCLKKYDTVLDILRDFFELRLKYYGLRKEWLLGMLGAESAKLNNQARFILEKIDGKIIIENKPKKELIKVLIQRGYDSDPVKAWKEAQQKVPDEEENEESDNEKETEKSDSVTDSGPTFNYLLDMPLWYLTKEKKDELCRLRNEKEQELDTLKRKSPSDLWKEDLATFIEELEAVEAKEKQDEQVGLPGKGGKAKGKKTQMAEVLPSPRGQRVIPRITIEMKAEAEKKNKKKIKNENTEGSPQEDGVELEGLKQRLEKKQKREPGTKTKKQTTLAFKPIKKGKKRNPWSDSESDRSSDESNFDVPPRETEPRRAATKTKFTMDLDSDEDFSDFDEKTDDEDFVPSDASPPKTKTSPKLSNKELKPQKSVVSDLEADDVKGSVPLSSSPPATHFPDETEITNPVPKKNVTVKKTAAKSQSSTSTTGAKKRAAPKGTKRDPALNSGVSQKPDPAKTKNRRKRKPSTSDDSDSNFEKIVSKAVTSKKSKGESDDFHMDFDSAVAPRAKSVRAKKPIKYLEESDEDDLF
pIC50: −log10 of the molar value.
ASSAY METRIC: pIC50

COMPOUND	SYSTEM TESTED	ASSAY METRIC	MEASURED RESULT
COc1cc(C(=O)O)ccc1NC(=O)c1ccc(NC(=O)c2ccc(NC(=O)C(NC(=O)c3ccc(NC(=O)c4ccc([N+](=O)[O-])cc4)cc3)C(OC)C(N)=O)cc2)c(OC)c1O (stereo not shown) [cystobactamide D]	H. sapiens topoisomerase II (Homo sapiens)	pIC50	4.39

###

system: Human HCT-116 colon carcinoma cells

COMPOUND	GI50
COC(C(=O)Nc1ccc(C(=O)Nc2ccc(C(=O)Nc3ccc(C(=O)O)cc3OC(C)C)c(O)c2OC(C)C)cc1)C(NC(=O)c1ccc(NC(=O)c2ccc([N+](=O)[O-])cc2)cc1)C(=O)O (stereo not shown) [cystobactamide B]	> 50 µM

###

target: E. coli gyrase (Escherichia coli, UniProt P0AES4+P0AES6); construct: purchased Inspiralis (Norwich, UK); assay: Gyrase supercoiling (inhibition) assay; type: biochemical; conditions: E. coli gyrase 20.5 nM eq. 1 unit; read-out: apparent IC50, E. coli gyrase
ASSAY METRIC: IC50 (nM)

COMPOUND	MEASURED RESULT
COc1cc(C(=O)O)ccc1NC(=O)c1ccc(NC(=O)c2ccc(NC(=O)C(NC(=O)c3ccc(NC(=O)c4ccc([N+](=O)[O-])cc4)cc3)C(OC)C(N)=O)cc2)c(OC)c1O (stereo not shown) [cystobactamide D]	1000

###

target: E. coli gyrase (Escherichia coli, UniProt P0AES4+P0AES6); construct: purchased Inspiralis (Norwich, UK); assay: Gyrase supercoiling (inhibition) assay; assay type: biochemical; conditions: E. coli gyrase; read-out: IC50 gyrase
pIC50: −log10 of the molar value.
ASSAY METRIC: pIC50

COMPOUND	SYSTEM TESTED	MEASURED RESULT
COc1cc(C(=O)O)ccc1NC(=O)c1ccc(NC(=O)c2ccc(NC(=O)C(NC(=O)c3ccc(NC(=O)c4ccc([N+](=O)[O-])cc4)cc3)C(OC)C(N)=O)cc2)c(OC)c1O (stereo not shown) [cystobactamide D]	E. coli gyrase (Escherichia coli, UniProt P0AES4+P0AES6)	6.15

###

test system: Primary HUVEC (human umbilical vein endothelial cells)

COMPOUND	GI50
COC(C(=O)Nc1ccc(C(=O)Nc2ccc(C(=O)Nc3ccc(C(=O)O)cc3OC(C)C)c(O)c2OC(C)C)cc1)C(NC(=O)c1ccc(NC(=O)c2ccc([N+](=O)[O-])cc2)cc1)C(=O)O (stereo not shown) [cystobactamide B]	> 50 µM

###

target: E. coli gyrase (Escherichia coli, UniProt P0AES4+P0AES6); construct: purchased Inspiralis (Norwich, UK); test: Gyrase supercoiling (inhibition) assay; assay type: biochemical; conditions: table; averages of three independent experiments; read-out: IC50 in the Gyrase inhibition assay

COMPOUND	IC50 / µM
COc1cc(C(=O)O)ccc1NC(=O)c1ccc(NC(=O)c2ccc(NC(=O)C(NC(=O)c3ccc(NC(=O)c4ccc([N+](=O)[O-])cc4)cc3)C(OC)C(N)=O)cc2)c(OC)c1O (stereo not shown) [cystobactamide D]	0.7

###

assay: in vitro; assay type: cell-based, Chinese hamster; conditions: Chinese hamster
ASSAY METRIC: GI50 at 5 d

>>> print(df.to_string())
                                   molecule  assay_metric  measured_result
0  CC(C)Oc1cc(C(=O)O)ccc1NC(=O)c1ccc(NC(=O)c2ccc(N)cc2)c(OC(C)C)c1O [cystobactamide C, Cystobactamide C]   GI50 at 5 d          ~111 µM
